Origin of measurements: ChEMBL document CHEMBL4680154

assay: Plasma protein binding in monkey at 5 uM after 5 hrs by LC-MS/MS based equilibrium dialysis method; format: ADME, cell-free, Macaca mulatta; details: rhesus monkey, read-out: PPB (converted)
VALUE KIND: fraction unbound at 5 h, 5 µM
One number for each entry.

// query Return the recorded fraction unbound at 5 h, 5 µM value; entry: `CC#CCn1c(N2CCC[C@@H](N)C2)nc2c1c(=O)n(CCCN1CCN(c3nc(-c4ccccc4)no3)CC1)c(=O)n2C.Cl`
// result 0.04

###

assay: AUC(0 to t) in ICR mouse plasma at 20 mg/kg, po measured up to 24 hrs; type: ADME, organism-based; design: route oral, dose 20 mg/kg, time <=24
VALUE KIND: AUC(0-t) at 24 h (ng·h/mL)
Numbers only, in ng·h/mL.

// query Return the recorded AUC(0-t) at 24 h value; entry: `CC#CCn1c(N2CCC[C@@H](N)C2)nc2c1c(=O)n(CCCN1CCN(c3nc(-c4ccccc4)no3)CC1)c(=O)n2C`
// result 308

###

test: Elimination half life in ICR mouse plasma at 20 mg/kg, po measured up to 24 hrs; type: ADME, organism-based; details: read-out: beta t1/2 (converted)
VALUE KIND: half-life (h)
Numbers only, in h.

// query Return the recorded half-life value; entry: `CC#CCn1c(N2CCC[C@@H](N)C2)nc2c1c(=O)n(CCCN1CCN(c3nc(-c4ccccc4)no3)CC1)c(=O)n2C`
// result 1.06

###

assay: Acute toxicity in po dosed ICR mouse assessed as animal survival administered as single dose and observed for 7 days; format: organism-based; details: in vivo, time 7 day
VALUE KIND: LD50 at 168 h

// query Return the recorded LD50 at 168 h value; entry: `CC#CCn1c(N2CCC[C@@H](N)C2)nc2c1c(=O)n(CCCN1CCN(c3nc(-c4ccccc4)no3)CC1)c(=O)n2C.Cl`
// result > 1500 mg/kg

###

assay: Metabolic stability in human hepatocytes assessed as parent compound remaining incubated for 30 mins by LC-MS/MS analysis; format: ADME, cell-based, Hepatocyte; details: read-out: Stabilty
Param label: returns 1 (yes) when remaining at 0.5 h < 80%, returns 0 (no) otherwise, including exact equality.

{"SUBSTANCE SMILES": "CC#CCn1c(N2CCC[C@@H](N)C2)nc2c1c(=O)n(CCCN1CCN(c3nc(-c4ccccc4)no3)CC1)c(=O)n2C", "GROUP": "0 (no)"}
{"SUBSTANCE SMILES": "CC#CCn1c(N2CCC[C@@H](N)C2)nc2c1c(=O)n(CCCN1CCN(c3nc(-c4ccccc4)cs3)CC1)c(=O)n2C", "GROUP": "0 (no)"}
{"SUBSTANCE SMILES": "CC#CCn1c(N2CCC[C@@H](N)C2)nc2c1c(=O)n(CCCN1CCC(c3nc(-c4ccccc4)c[nH]3)CC1)c(=O)n2C", "GROUP": "0 (no)"}

Would you kindly look at the next entry?
// query Consider the compound `CC#CCn1c(N2CCC[C@@H](N)C2)nc2c1c(=O)n(CCCN1CCC(n3cc(-c4ccccc4)nn3)CC1)c(=O)n2C` . Is its remaining at 0.5 h strictly less than 80%?
// result 1 (yes)

###

test: Cmax in Sprague-Dawley rat plasma at 3 mg/kg, iv measured up to 24 hrs; format: ADME, organism-based; design: route intravenous, dose 3 mg/kg, time <=24
VALUE KIND: Cmax (ng/mL)
Numbers only, in ng/mL.

// query Return the recorded Cmax value; entry: `CC#CCn1c(N2CCC[C@@H](N)C2)nc2c1c(=O)n(CCCN1CCN(c3nc(-c4ccccc4)no3)CC1)c(=O)n2C.Cl`
// result 416
